- Tested on: CN0375-F725-PDC KRAS spheroid viability
- assayMethodText: Anticancer human tumor CN0375-F725-PDC patient-derived colon carcinoma cell line growth inhibition [KRAS2]
- conditionContext: curve of first compound; second compound 10 µM; spheroids with HUVEC and MSC
pIC50: −log10 of the molar value.
Label No if pIC50 falls below 6; label Yes in every other case.

Could you please find out whether Cn1nccc1Nc1nccc(-c2cc3c(s2)C(C)(C)N(CCN2CCOCC2)C3=O)n1 + CNCc1ccccc1-c1csc(C(C)Nc2nc(C)nc3cc(OC)c(OC)cc23)c1 has pIC50 that meets 6 or exceeds it?
Yes

Could you please find out whether CC(C)NCC(C(=O)N1CCN(c2ncnc3c2C(C)CC3O)CC1)c1ccc(Cl)cc1 (stereo not given) + CNCc1ccccc1-c1csc(C(C)Nc2nc(C)nc3cc(OC)c(OC)cc23)c1 has pIC50 that meets 6 or exceeds it?
Yes

Could you please find out whether CC(=O)Nc1cccc(-n2c(=O)n(C3CC3)c(=O)c3c(Nc4ccc(I)cc4F)n(C)c(=O)c(C)c32)c1 + C=CC(=O)N1CCN(c2nc(=O)n(-c3c(C)ccnc3C(C)C)c3nc(-c4c(O)cccc4F)c(F)cc23)C(C)C1 has pIC50 that meets 6 or exceeds it?
Yes

Could you please find out whether COC(=O)c1ccc2c(C(=Nc3ccc(N(C)C(=O)CN4CCN(C)CC4)cc3)c3ccccc3)c(O)[nH]c2c1 + C=CC(=O)N1CCN(c2nc(=O)n(-c3c(C)ccnc3C(C)C)c3nc(-c4c(O)cccc4F)c(F)cc23)C(C)C1 has pIC50 that meets 6 or exceeds it?
No

Could you please find out whether CC(C)n1nc(-c2ccc3oc(N)nc3c2)c2c(N)ncnc21 + C=CC(=O)N1CCN(c2nc(=O)n(-c3c(C)ccnc3C(C)C)c3nc(-c4c(O)cccc4F)c(F)cc23)C(C)C1 has pIC50 that meets 6 or exceeds it?
Yes

Could you please find out whether COc1cc2nccc(Oc3ccc(NC(=O)C4(C(=O)Nc5ccc(F)cc5)CC4)cc3)c2cc1OC + CNCc1ccccc1-c1csc(C(C)Nc2nc(C)nc3cc(OC)c(OC)cc23)c1 has pIC50 that meets 6 or exceeds it?
Yes

Could you please find out whether COc1cc2nccc(Oc3ccc(NC(=O)C4(C(=O)Nc5ccc(F)cc5)CC4)cc3)c2cc1OC + C=CC(=O)N1CCN(c2nc(=O)n(-c3c(C)ccnc3C(C)C)c3nc(-c4c(O)cccc4F)c(F)cc23)C(C)C1 has pIC50 that meets 6 or exceeds it?
No

Could you please find out whether CCN1CCN(Cc2ccc(Nc3ncc(F)c(-c4cc(F)c5nc(C)n(C(C)C)c5c4)n3)nc2)CC1 + COc1cc2nc(C)nc(NC(C)c3cc(N)cc(C(F)(F)F)c3)c2cc1OC1CCOC1 has pIC50 that meets 6 or exceeds it?
Yes

Could you please find out whether CC(C)NCC(C(=O)N1CCN(c2ncnc3c2C(C)CC3O)CC1)c1ccc(Cl)cc1 (stereo not given) + COc1cc2nc(C)nc(NC(C)c3cc(N)cc(C(F)(F)F)c3)c2cc1OC1CCOC1 has pIC50 that meets 6 or exceeds it?
Yes

---

- Tested on: CN0375-F725-PDC KRAS spheroid viability
- assayMethodText: Anticancer human tumor CN0375-F725-PDC cell line growth inhibition [KRAS2]; active = viability on the fitted dose curve at most 10% of control; inactive = the rest;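 note: spheroids exposed to agents for 7 days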
- conditionContext: second compound 10 µM; first compound 0.1 µM; spheroids with HUVEC and MSC
Write down the outcome that applies. Available outcomes: active, inactive

Could you check what this test reported for CC(=O)OC12COC1CC(O)C1(C)C(=O)C(O)C3=C(C)C(OC(=O)C(O)C(NC(=O)OC(C)(C)C)c4ccccc4)CC(O)(C(OC(=O)c4ccccc4)C21)C3(C)C (stereo unspecified) + C=CC(=O)N1CCN(c2nc(=O)n(-c3c(C)ccnc3C(C)C)c3nc(-c4c(O)cccc4F)c(F)cc23)C(C)C1 ?
inactive

Could you check what this test reported for COc1cc2nccc(Oc3ccc(NC(=O)C4(C(=O)Nc5ccc(F)cc5)CC4)cc3)c2cc1OC + CC1OCC2(CCN(c3cnc(Sc4ccnc(N)c4Cl)c(N)n3)CC2)C1N ?
inactive

Could you check what this test reported for CN(C)C/C=C/C(=O)Nc1cc2c(Nc3ccc(F)c(Cl)c3)ncnc2cc1O[C@H]1CCOC1 + CNCc1ccccc1-c1csc(C(C)Nc2nc(C)nc3cc(OC)c(OC)cc23)c1 ?
active

Could you check what this test reported for CC(C)NCC(C(=O)N1CCN(c2ncnc3c2C(C)CC3O)CC1)c1ccc(Cl)cc1 (stereo unspecified) + C=CC(=O)N1CCN(c2nc(=O)n(-c3c(C)ccnc3C(C)C)c3nc(-c4c(O)cccc4F)c(F)cc23)C(C)C1 ?
inactive

Could you check what this test reported for CC1(C)CCC(CN2CCN(c3ccc(C(=O)NS(=O)(=O)c4ccc(NCC5CCOCC5)c([N+](=O)[O-])c4)c(Oc4cnc5[nH]ccc5c4)c3)CC2)=C(c2ccc(Cl)cc2)C1 + COc1cc2nc(C)nc(NC(C)c3cc(N)cc(C(F)(F)F)c3)c2cc1OC1CCOC1 ?
inactive

Could you check what this test reported for COC(=O)c1ccc2c(C(=Nc3ccc(N(C)C(=O)CN4CCN(C)CC4)cc3)c3ccccc3)c(O)[nH]c2c1 + CC1OCC2(CCN(c3cnc(Sc4ccnc(N)c4Cl)c(N)n3)CC2)C1N ?
inactive

Could you check what this test reported for CCN1CCN(Cc2ccc(Nc3ncc(F)c(-c4cc(F)c5nc(C)n(C(C)C)c5c4)n3)nc2)CC1 + COc1cc2nc(C)nc(NC(C)c3cc(N)cc(C(F)(F)F)c3)c2cc1OC1CCOC1 ?
active

Could you check what this test reported for Cn1ncnc1[C@H]1c2n[nH]c(=O)c3cc(F)cc(c23)N[C@@H]1c1ccc(F)cc1 + CNCc1ccccc1-c1csc(C(C)Nc2nc(C)nc3cc(OC)c(OC)cc23)c1 ?
active

Could you check what this test reported for Cn1nccc1Nc1nccc(-c2cc3c(s2)C(C)(C)N(CCN2CCOCC2)C3=O)n1 + CC1OCC2(CCN(c3cnc(Sc4ccnc(N)c4Cl)c(N)n3)CC2)C1N ?
inactive

Could you check what this test reported for COC(=O)c1ccc2c(C(=Nc3ccc(N(C)C(=O)CN4CCN(C)CC4)cc3)c3ccccc3)c(O)[nH]c2c1 + COc1cc2nc(C)nc(NC(C)c3cc(N)cc(C(F)(F)F)c3)c2cc1OC1CCOC1 ?
inactive

Could you check what this test reported for CCN1CCN(Cc2ccc(Nc3ncc(F)c(-c4cc(F)c5nc(C)n(C(C)C)c5c4)n3)nc2)CC1 + CNCc1ccccc1-c1csc(C(C)Nc2nc(C)nc3cc(OC)c(OC)cc23)c1 ?
active

Could you check what this test reported for O=C(c1cc(Cc2n[nH]c(=O)c3ccccc23)ccc1F)N1CCN(C(=O)C2CC2)CC1 + CNCc1ccccc1-c1csc(C(C)Nc2nc(C)nc3cc(OC)c(OC)cc23)c1 ?
active

Could you check what this test reported for COC(=O)c1ccc2c(C(=Nc3ccc(N(C)C(=O)CN4CCN(C)CC4)cc3)c3ccccc3)c(O)[nH]c2c1 + CNCc1ccccc1-c1csc(C(C)Nc2nc(C)nc3cc(OC)c(OC)cc23)c1 ?
active

Could you check what this test reported for CCNC(=O)CC1N=C(c2ccc(Cl)cc2)c2cc(OC)ccc2-n2c(C)nnc21 (stereo unspecified) + CC1OCC2(CCN(c3cnc(Sc4ccnc(N)c4Cl)c(N)n3)CC2)C1N ?
inactive

Could you check what this test reported for CC1COCCN1c1cc(-c2ccnn2C)c2ccnc(-c3ccn[nH]3)c2n1 (stereo unspecified) + CC1OCC2(CCN(c3cnc(Sc4ccnc(N)c4Cl)c(N)n3)CC2)C1N ?
inactive

Could you check what this test reported for O=C(c1cc(Cc2n[nH]c(=O)c3ccccc23)ccc1F)N1CCN(C(=O)C2CC2)CC1 + CC1OCC2(CCN(c3cnc(Sc4ccnc(N)c4Cl)c(N)n3)CC2)C1N ?
inactive

Could you check what this test reported for Cn1nccc1Nc1nccc(-c2cc3c(s2)C(C)(C)N(CCN2CCOCC2)C3=O)n1 + C=CC(=O)N1CCN(c2nc(=O)n(-c3c(C)ccnc3C(C)C)c3nc(-c4c(O)cccc4F)c(F)cc23)C(C)C1 ?
inactive

Could you check what this test reported for Cn1ncnc1[C@H]1c2n[nH]c(=O)c3cc(F)cc(c23)N[C@@H]1c1ccc(F)cc1 + C=CC(=O)N1CCN(c2nc(=O)n(-c3c(C)ccnc3C(C)C)c3nc(-c4c(O)cccc4F)c(F)cc23)C(C)C1 ?
inactive

Could you check what this test reported for CC1COCCN1c1cc(-c2ccnn2C)c2ccnc(-c3ccn[nH]3)c2n1 (stereo unspecified) + COc1cc2nc(C)nc(NC(C)c3cc(N)cc(C(F)(F)F)c3)c2cc1OC1CCOC1 ?
inactive

Could you check what this test reported for COc1cc(Nc2ncc3c(n2)-c2ccc(Cl)cc2C(c2c(F)cccc2OC)=NC3)ccc1C(=O)O + C=CC(=O)N1CCN(c2nc(=O)n(-c3c(C)ccnc3C(C)C)c3nc(-c4c(O)cccc4F)c(F)cc23)C(C)C1 ?
inactive

Could you check what this test reported for CC(C)NCC(C(=O)N1CCN(c2ncnc3c2C(C)CC3O)CC1)c1ccc(Cl)cc1 (stereo unspecified) + CNCc1ccccc1-c1csc(C(C)Nc2nc(C)nc3cc(OC)c(OC)cc23)c1 ?
active
